All values here come from ChEMBL document CHEMBL3865784.

Reported Ratio IC50 is given for each of the following compounds.
System: V79
Experiment: Selectivity index, ratio of IC50 for NQO1-deficient chinese hamster V79 cells to IC50 for human PC3 cells overexpressing NQO1
value type: Ratio IC50

1) [N-]=[N+]=NCC1CC2=C(O1)C(=O)c1ccccc1C2=O (centres undefined)    6.3
2) CC1(C)OC2=C(C(=O)C(=O)c3ccccc32)C(N=[N+]=[N-])[C@@H]1Br (some centres undefined)    1.4
3) CC1(C)OC2=C(C(=O)C(=O)c3ccccc32)C1Nc1cccc(-c2cn(C[Se]c3ccccc3)nn2)c1 (centres undefined)    2.9
4) C#Cc1cccc(NC2C3=C(OC2(C)C)c2ccccc2C(=O)C3=O)c1 (centres undefined)    1.1
5) [N-]=[N+]=NCC1CC2=C(O1)c1ccccc1C(=O)C2=O (centres undefined)    1.6
6) CC1(C)OC2=C(C(=O)c3ccccc3C2=O)C1Nc1cccc(-c2cn(C[Se]c3ccccc3)nn2)c1 (centres undefined)    2.2
7) CC1(C)OC2=C(C(=O)C(=O)c3ccccc32)[C@@H](n2cc(C[Se]c3ccccc3)nn2)[C@@H]1Br    1.1
8) O=C1C2=C(OC(Cn3cc(C[Se]c4ccccc4)nn3)C2)C(=O)c2ccccc21 (centres undefined)    1.4
9) O=C1C(=O)c2ccccc2C2=C1CC(Cn1cc(C[Se]c3ccccc3)nn1)O2 (centres undefined)    1.8

---

System: HL-60
Assay: Selectivity index, ratio of IC50 for NQO1-deficient human PBMC to IC50 for NQO1-deficient human HL60 cells
Returns: string. Value is y if measured Ratio IC50 is below 4, and n if it is greater than or equal to it.

1) CC1(C)CC(N=[N+]=[N-])C2=C(O1)C(=O)c1ccccc1C2=O (stereo not given)    y
2) C#Cc1cccc(NC2C3=C(OC2(C)C)c2ccccc2C(=O)C3=O)c1 (stereo not given)    n
3) O=C1C=C(NCc2cn(C[Se]c3ccccc3)nn2)C(=O)c2ccccc21    n
4) [N-]=[N+]=NCC1CC2=C(O1)C(=O)c1ccccc1C2=O (stereo not given)    n
5) O=C1C(Br)=C(NCc2cn(C[Se]c3ccccc3)nn2)C(=O)c2ccccc21    y

---

Test: Cytotoxicity against NQO1-deficient mouse L929 cells assessed as reduction in cell viability after 72 hrs by MTT assay
Type: toxicity, cell-based
Conditions: mouse, NQO1-deficient L929 cells
value type: IC50 at 72 h

1. COc1cccc2c1C(=O)c1c(O)c3c(c(O)c1C2=O)C[C@@](O)(C(=O)CO)C[C@@H]3O[C@H]1C[C@H](N)[C@H](O)[C@H](C)O1    230 nM

---

# key: entry, value: IC50
Test: Cytotoxicity against human OVCAR8 cells overexpressing NQO1 assessed as reduction in cell viability after 72 hrs by MTT assay
Format: functional, cell-based
Details: OVCAR-8, 72 h
value type: IC50 (µM)

1. CC1(C)OC2=C(C(=O)c3ccccc3C2=O)C1Nc1cccc(-c2cn(C[Se]c3ccccc3)nn2)c1 (stereo unspecified)    0.68
2. [N-]=[N+]=NC1=CC(=O)c2ccccc2C1=O    3.51
3. CC1(C)OC2=C(C(=O)C(=O)c3ccccc32)C1N=[N+]=[N-] (stereo unspecified)    1.34
4. CC1(C)OC2=C(C(=O)C(=O)c3ccccc32)C1Nc1cccc(-c2cn(C[Se]c3ccccc3)nn2)c1 (stereo unspecified)    0.2
5. CC1(C)OC2=C(C(=O)C(=O)c3ccccc32)C(N=[N+]=[N-])[C@@H]1Br (stereo partly specified)    2.24
6. [N-]=[N+]=NCC1CC2=C(O1)c1ccccc1C(=O)C2=O (stereo unspecified)    0.35

---

Listed next: entries and their corresponding IC50.
Species on record: Mus musculus
Assay: Cytotoxicity against NQO1-deficient mouse L929 cells assessed as reduction in cell viability after 72 hrs by MTT assay
Assay type: toxicity, cell-based
Conditions: l929
value type: IC50

1) O=C1C(Cl)=C(NCc2cn(C[Se]c3ccccc3)nn2)C(=O)c2ccccc21    3.43 µM
2) O=C1C2=C(C(=O)c3ccccc31)[C@H](c1cccc3ccccc13)[C@@H](n1cc(C[Se]c3ccccc3)nn1)CO2    > 8.67 µM
3) O=C1C=C(n2cc(C[Se]c3ccccc3)nn2)C(=O)c2ccccc21    > 12.7 µM

---

Assay: Selectivity index, ratio of IC50 for NQO1-deficient human PBMC to IC50 for human MDA-MB-435 cells overexpressing NQO1
Ratio IC50 of 4 or higher: 1. Under 4: -1.

1) [N-]=[N+]=NCC1CC2=C(O1)C(=O)c1ccccc1C2=O (centres undefined)    1
2) [N-]=[N+]=NCC1CC2=C(O1)c1ccccc1C(=O)C2=O (centres undefined)    1
3) CC1(C)OC2=C(C(=O)C(=O)c3ccccc32)C(N=[N+]=[N-])[C@@H]1Br (some centres undefined)    -1
4) O=C1C2=C(OC(Cn3cc(C[Se]c4ccccc4)nn3)C2)C(=O)c2ccccc21 (centres undefined)    1
5) O=C1C(=O)c2ccccc2C2=C1CC(Cn1cc(C[Se]c3ccccc3)nn1)O2 (centres undefined)    1
6) CC1(C)CC(Nc2cccc(-c3cn(C[Se]c4ccccc4)nn3)c2)C2=C(O1)C(=O)c1ccccc1C2=O (centres undefined)    -1
7) CC1(C)OC2=C(C(=O)C(=O)c3ccccc32)C1Nc1cccc(-c2cn(C[Se]c3ccccc3)nn2)c1 (centres undefined)    1
8) CC1(C)OC2=C(C(=O)c3ccccc3C2=O)C1Nc1cccc(-c2cn(C[Se]c3ccccc3)nn2)c1 (centres undefined)    -1
9) O=C1C(Br)=C(NCc2cn(C[Se]c3ccccc3)nn2)C(=O)c2ccccc21    -1

---

Tested on: L929
Test: Selectivity index, ratio of IC50 for NQO1-deficient mouse L929 cells to IC50 for human MDA-MB-435 cells overexpressing NQO1
Entry flag: Condition met if Ratio IC50 reaches 2; Condition not met if it does not.

1. O=C1C(=O)c2ccccc2C2=C1CC(Cn1cc(C[Se]c3ccccc3)nn1)O2 (stereo not given)    Condition met
2. [N-]=[N+]=NCC1CC2=C(O1)C(=O)c1ccccc1C2=O (stereo not given)    Condition met
3. CC1(C)CC(Nc2cccc(-c3cn(C[Se]c4ccccc4)nn3)c2)C2=C(O1)C(=O)c1ccccc1C2=O (stereo not given)    Condition met
4. [N-]=[N+]=NCC1CC2=C(O1)c1ccccc1C(=O)C2=O (stereo not given)    Condition met
5. CC1(C)OC2=C(C(=O)C(=O)c3ccccc32)[C@@H](n2cc(C[Se]c3ccccc3)nn2)[C@@H]1Br    Condition not met
6. CC1(C)OC2=C(C(=O)c3ccccc3C2=O)C1Nc1cccc(-c2cn(C[Se]c3ccccc3)nn2)c1 (stereo not given)    Condition met
7. CC1(C)OC2=C(C(=O)C(=O)c3ccccc32)C(N=[N+]=[N-])[C@@H]1Br (stereo not given in full)    Condition not met
8. O=C1C(Br)=C(NCc2cn(C[Se]c3ccccc3)nn2)C(=O)c2ccccc21    Condition met
9. CC1(C)OC2=C(C(=O)C(=O)c3ccccc32)C1Nc1cccc(-c2cn(C[Se]c3ccccc3)nn2)c1 (stereo not given)    Condition met
10. O=C1C2=C(OC(Cn3cc(C[Se]c4ccccc4)nn3)C2)C(=O)c2ccccc21 (stereo not given)    Condition met

---

Experiment: Cytotoxicity against human OVCAR8 cells overexpressing NQO1 assessed as reduction in cell viability after 72 hrs by MTT assay
Type: functional, cell-based
Details: OVCAR-8, 72 h
The entries below are paired with their reported IC50.
value type: IC50 (nM)

1. CC1(C)OC2=C(C(=O)c3ccccc3C2=O)C1N=[N+]=[N-] (stereo not given)    3530
2. CC1(C)OC2=C(C(=O)C(=O)c3ccccc32)C1n1cc(C[Se]c2ccccc2)nn1 (stereo not given)    2260
3. CC1(C)OC2=C(C(=O)c3ccccc3C2=O)C1n1cc(C[Se]c2ccccc2)nn1 (stereo not given)    2800
4. O=C1C2=C(OC(Cn3cc(C[Se]c4ccccc4)nn3)C2)C(=O)c2ccccc21 (stereo not given)    910
5. CC1(C)CC(N=[N+]=[N-])C2=C(O1)C(=O)c1ccccc1C2=O (stereo not given)    1480
6. O=C1C=C(NCc2cn(C[Se]c3ccccc3)nn2)C(=O)c2ccccc21    1890
7. [N-]=[N+]=NCC1CC2=C(O1)C(=O)c1ccccc1C2=O (stereo not given)    350
8. C#Cc1cccc(NC2C3=C(OC2(C)C)c2ccccc2C(=O)C3=O)c1 (stereo not given)    2530
9. O=C1C(Cl)=C(NCc2cn(C[Se]c3ccccc3)nn2)C(=O)c2ccccc21    2580

---

Assay: Cytotoxicity against NQO1-deficient chinese hamster V79 cells assessed as reduction in cell viability after 72 hrs by MTT assay
Format: toxicity, cell-based, Cricetulus griseus
Conditions: v79
pIC50: −log10 of the molar value.
value type: pIC50

1) O=C1C(=O)c2ccccc2C2=C1CC(Cn1cc(C[Se]c3ccccc3)nn1)O2 (stereo unspecified)    6.36
2) CC1(C)OC2=C(C(=O)C(=O)c3ccccc32)C1n1cc(C[Se]c2ccccc2)nn1 (stereo unspecified)    5.58
3) [N-]=[N+]=NCC1CC2=C(O1)c1ccccc1C(=O)C2=O (stereo unspecified)    6.09
4) CC1(C)OC2=C(C(=O)C(=O)c3ccccc32)C(N=[N+]=[N-])[C@@H]1Br (stereo partly specified)    5.62
